tested on: MCF7 (MCF7/ATCC) cells; experiment: Cell viability (cell kill) assay, nuclear counts; format: cell-based; settings: MCF7; Table 12; 3 days
Measurement label: % Kill
Please state the number and follow it with the unit.

Req: Fill in: % Kill of H1H6953N-DM1 (conjugate) VH: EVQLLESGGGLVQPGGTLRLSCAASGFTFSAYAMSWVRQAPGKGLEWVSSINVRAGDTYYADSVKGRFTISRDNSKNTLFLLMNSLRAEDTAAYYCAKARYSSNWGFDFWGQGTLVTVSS VL: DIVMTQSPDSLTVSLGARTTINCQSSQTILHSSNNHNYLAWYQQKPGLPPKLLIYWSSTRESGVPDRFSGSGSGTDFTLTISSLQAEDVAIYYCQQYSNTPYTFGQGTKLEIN is ___
Resp: 55%

Value source: patent US9688764B2
